Numbers sourced from paper PMC12714728.

Target: H5N1 A/Vietnam/1203/2004 hemagglutinin ectodomain, biotinylated HA0 (influenza A virus A/Vietnam/1203/2004 …)
Test: SPR
Positions of bridges follow the written chain, without caps; N, C: chain ends. Non-standard residues stand in square brackets, D forms with d. No end group written: not given here.
Readings of koff for the listed binders

[
  {
    "BINDER": "[dP]PVSLYEDPLGVAGGMGVY (also: cyclic peptide, ring closure not given here) [cyclic peptide CP1]",
    "koff [s⁻¹]": 0.14
  },
  {
    "BINDER": "CLYRDPLGVAGGMGC (disulfide 1-15) [cyclic peptide CP8]",
    "koff [s⁻¹]": 0.98
  },
  {
    "BINDER": "PGLYEDPLGVAGGMG (also: cyclic peptide, ring closure not given here) [cyclic peptide CP6]",
    "koff [s⁻¹]": 0.95
  }
]
